Values from the supplement of paper PMC6555819

# Tested on: LXRb homodimer (NR concentration 270 nM)
# method-notes: PBM binding z-score (relative to random genomic background probes); higher = stronger binding; sequences stand for … in GC…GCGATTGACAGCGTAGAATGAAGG
Is PBM binding z-score at least 0.3? Then true. If not, false.

Exercise: Test whether the sequence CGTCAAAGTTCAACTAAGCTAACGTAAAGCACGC records PBM binding z-score of 0.3 or higher.
Key: true

Exercise: Test whether the sequence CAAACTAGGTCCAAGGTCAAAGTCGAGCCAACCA records PBM binding z-score of 0.3 or higher.
Key: true

Exercise: Test whether the sequence ACTCTTAGTTGAGACGAGGGCAACCGATAGGTTG records PBM binding z-score of 0.3 or higher.
Key: false

Exercise: Test whether the sequence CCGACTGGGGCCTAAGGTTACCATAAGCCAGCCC records PBM binding z-score of 0.3 or higher.
Key: false

Exercise: Test whether the sequence TCTAGCAGGCCAGTGGGTCACTCAAGAGGTACGG records PBM binding z-score of 0.3 or higher.
Key: false

---

# System: PPARg:RXRa 270nM:90nM, anti-RXR (NR concentration 270 nM, RXRa partner concentration 90 nM)
# method-notes: PBM binding z-score (relative to random genomic background probes); higher = stronger binding; sequences stand for … in GC…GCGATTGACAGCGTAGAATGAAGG
Provide the recorded PBM binding z-score for the entries that follow.
In your answer, state the number alone without any accompanying words.

Exercise: What value of measured PBM binding z-score is listed for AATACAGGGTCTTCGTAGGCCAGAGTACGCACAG ?
Key: 0.174

Exercise: What value of measured PBM binding z-score is listed for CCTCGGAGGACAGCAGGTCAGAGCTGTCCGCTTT ?
Key: -0.393

Exercise: What value of measured PBM binding z-score is listed for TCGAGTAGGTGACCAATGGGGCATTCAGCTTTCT ?
Key: 1.12

Exercise: What value of measured PBM binding z-score is listed for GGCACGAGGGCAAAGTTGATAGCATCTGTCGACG ?
Key: 6.24

Exercise: What value of measured PBM binding z-score is listed for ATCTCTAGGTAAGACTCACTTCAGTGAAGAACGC ?
Key: 0.0551

Exercise: What value of measured PBM binding z-score is listed for TCAGACAGGTGAAGGTCACTCAGGTACGCAGTCG ?
Key: 3.12

Exercise: What value of measured PBM binding z-score is listed for CCTACTGGGCCATCAGGTCATTAATATCAACGTT ?
Key: 3.3

Exercise: What value of measured PBM binding z-score is listed for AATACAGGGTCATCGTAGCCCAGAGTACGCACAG ?
Key: 6.26

Exercise: What value of measured PBM binding z-score is listed for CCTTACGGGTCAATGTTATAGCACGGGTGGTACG ?
Key: 3.22

Exercise: What value of measured PBM binding z-score is listed for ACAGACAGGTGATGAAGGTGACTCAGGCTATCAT ?
Key: 0.457

Exercise: What value of measured PBM binding z-score is listed for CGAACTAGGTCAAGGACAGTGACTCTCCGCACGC ?
Key: 6.66

Exercise: What value of measured PBM binding z-score is listed for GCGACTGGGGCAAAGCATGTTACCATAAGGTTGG ?
Key: 2.22

Exercise: What value of measured PBM binding z-score is listed for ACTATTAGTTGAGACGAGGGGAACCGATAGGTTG ?
Key: -0.00558

Exercise: What value of measured PBM binding z-score is listed for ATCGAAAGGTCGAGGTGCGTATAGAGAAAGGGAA ?
Key: 3.13

Exercise: What value of measured PBM binding z-score is listed for CTACCTAGGTGAACAAGGTCGTTGATTACTATTC ?
Key: 1.36

Exercise: What value of measured PBM binding z-score is listed for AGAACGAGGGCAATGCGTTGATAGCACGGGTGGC ?
Key: 0.671

Exercise: What value of measured PBM binding z-score is listed for TCTAGCAGGCCAGAGGGTCAGTCAAGAGGTACGG ?
Key: 1.81

Exercise: What value of measured PBM binding z-score is listed for GCGACTGGGGCATCAGCAGGTTATCATAACTTAA ?
Key: 0.916

Exercise: What value of measured PBM binding z-score is listed for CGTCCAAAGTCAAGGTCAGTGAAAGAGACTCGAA ?
Key: 1.04

Exercise: What value of measured PBM binding z-score is listed for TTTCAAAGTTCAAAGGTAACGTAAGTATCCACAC ?
Key: 6.43

Exercise: What value of measured PBM binding z-score is listed for AGAATGAGGTTATTAAGATCAGGAAATTGCGGTC ?
Key: 1.8

Exercise: What value of measured PBM binding z-score is listed for CCTAGCAGGGCAATCTGGGTCACTCAAGGCTTGA ?
Key: 2.62

Exercise: What value of measured PBM binding z-score is listed for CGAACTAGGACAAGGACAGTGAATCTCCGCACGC ?
Key: 0.612

Exercise: What value of measured PBM binding z-score is listed for CCAGACAGGTGAAGGGTAACTCAGTCTGGTACGC ?
Key: 3.63

Exercise: What value of measured PBM binding z-score is listed for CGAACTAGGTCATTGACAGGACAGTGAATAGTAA ?
Key: 6.13

Exercise: What value of measured PBM binding z-score is listed for TCTATTAGTTGAAGAGCAACCGACGAGTCCGTTT ?
Key: 1.45

Exercise: What value of measured PBM binding z-score is listed for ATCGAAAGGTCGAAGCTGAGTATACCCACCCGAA ?
Key: 2.92

Exercise: What value of measured PBM binding z-score is listed for GCTGCTACGTCAACTGATGGTCAGCTAAAGCTCG ?
Key: -0.736

Exercise: What value of measured PBM binding z-score is listed for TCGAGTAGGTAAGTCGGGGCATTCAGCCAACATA ?
Key: 0.0863

Exercise: What value of measured PBM binding z-score is listed for GCACGGAGGACAAGGTCAGAGCTTTGTCCGTAGA ?
Key: 1.2

Exercise: What value of measured PBM binding z-score is listed for ACAGTCAGGTGAGTGAAGGTAACTCAGCTGGACG ?
Key: 0.101

Exercise: What value of measured PBM binding z-score is listed for TCGAGTAGGTTAGTCGGGGCAGTCAGCCAACATA ?
Key: 0.946

Exercise: What value of measured PBM binding z-score is listed for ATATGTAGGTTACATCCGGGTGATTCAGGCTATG ?
Key: 4.39

Exercise: What value of measured PBM binding z-score is listed for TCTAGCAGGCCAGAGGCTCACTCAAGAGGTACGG ?
Key: 1.01

Exercise: What value of measured PBM binding z-score is listed for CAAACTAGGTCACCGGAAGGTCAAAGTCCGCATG ?
Key: 7.87

Exercise: What value of measured PBM binding z-score is listed for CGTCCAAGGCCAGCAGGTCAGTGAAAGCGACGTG ?
Key: -0.182

Exercise: What value of measured PBM binding z-score is listed for CCTGCTAGCTCATGGTCAGCTAATCTACAGTATG ?
Key: -0.822

Exercise: What value of measured PBM binding z-score is listed for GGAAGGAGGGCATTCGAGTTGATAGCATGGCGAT ?
Key: 1.07

Exercise: What value of measured PBM binding z-score is listed for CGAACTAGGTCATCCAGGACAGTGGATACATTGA ?
Key: 5.84

Exercise: What value of measured PBM binding z-score is listed for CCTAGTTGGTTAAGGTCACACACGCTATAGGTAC ?
Key: 3.2

Exercise: What value of measured PBM binding z-score is listed for CATTCAGGGTCAGCTAGGCCAGAGTAGGGACGGC ?
Key: 3.94

Exercise: What value of measured PBM binding z-score is listed for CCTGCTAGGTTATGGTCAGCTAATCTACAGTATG ?
Key: -0.092

Exercise: What value of measured PBM binding z-score is listed for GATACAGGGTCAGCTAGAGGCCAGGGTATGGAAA ?
Key: 3.44

Exercise: What value of measured PBM binding z-score is listed for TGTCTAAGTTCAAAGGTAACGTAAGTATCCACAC ?
Key: 5.15

Exercise: What value of measured PBM binding z-score is listed for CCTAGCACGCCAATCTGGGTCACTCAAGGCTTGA ?
Key: 2.16

Exercise: What value of measured PBM binding z-score is listed for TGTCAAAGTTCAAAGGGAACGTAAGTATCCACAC ?
Key: 7.17

Exercise: What value of measured PBM binding z-score is listed for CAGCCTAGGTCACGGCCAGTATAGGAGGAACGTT ?
Key: 4.44

Exercise: What value of measured PBM binding z-score is listed for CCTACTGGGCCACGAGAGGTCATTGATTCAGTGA ?
Key: 4.16

Exercise: What value of measured PBM binding z-score is listed for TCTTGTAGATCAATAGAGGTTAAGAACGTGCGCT ?
Key: 1.66

Exercise: What value of measured PBM binding z-score is listed for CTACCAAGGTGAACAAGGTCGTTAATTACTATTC ?
Key: 1.5

Exercise: What value of measured PBM binding z-score is listed for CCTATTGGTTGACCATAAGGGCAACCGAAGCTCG ?
Key: 0.235
